Listed here: items and their measured TD50 at 1 h.
Assay: in vivo
Set-up: species or system ddy Male mice
Conditions: mouse, po

{"compound": "COc1ccc(-c2cc(-n3cc(Cn4ccnc4)c4ccccc43)on2)cc1.Cl", "TD50 at 1 h": "> 750 mg/kg"}
{"compound": "COc1cccc(-c2cc(-n3cc(Cn4ccnc4)c4ccccc43)on2)c1.Cl", "TD50 at 1 h": "> 750 mg/kg"}
{"compound": "Cl.c1ccc(-c2cc(-n3cc(Cn4ccnc4)c4ccccc43)on2)cc1", "TD50 at 1 h": "> 750 mg/kg"}

As a next step, examine the compound that follows.
The recorded TD50 at 1 h for O=C1NC(=O)C(c2ccccc2)(c2ccccc2)N1 [Phenytoin.Na, reference compound] is 350 mg/kg

* * *

Test: Acute Toxicity (death within 5 days)
Details: mouse, in vivo, oral, death in 5 days (LD50 in the method text), read-out: ED50
recorded endpoint: LD50 at 120 h

{"compound": "Cl.c1ccc(-c2cc(-n3cc(Cn4ccnc4)c4ccccc43)on2)cc1", "result": "> 1000 mg/kg"}
{"compound": "COc1ccc(-c2cc(-n3cc(Cn4ccnc4)c4ccccc43)on2)cc1.Cl", "result": "> 1000 mg/kg"}
{"compound": "COc1cccc(-c2cc(-n3cc(Cn4ccnc4)c4ccccc43)on2)c1.Cl", "result": "> 1000 mg/kg"}

The recorded LD50 at 120 h for O=C1NC(=O)C(c2ccccc2)(c2ccccc2)N1 [Phenytoin.Na, reference compound] is 300 to 500 mg/kg

* * *

Listed here: items and their measured TD50 at 1 h.
Assay: in vivo
Design: species or system ddy Male mice
Settings: mouse, po
Output spec: scalar in mg/kg, unitless text.

{"compound": "Cl.c1ccc(-c2cc(-n3cc(Cn4ccnc4)c4ccccc43)on2)cc1", "TD50 at 1 h (mg/kg)": 500}

As a next step, examine the compound that follows.
The recorded TD50 at 1 h for O=C1NC(=O)C(c2ccccc2)(c2ccccc2)N1 [Phenytoin.Na, reference compound] is 186

Hello, the source for this data is patent US5112841A, in case you need it.
